Listing: pIC50 of selected molecules
# TARGET OR SYSTEM: Sodium-dependent noradrenaline transporter (Homo sapiens, UniProt P23975)
# Sequence (P23975 whole entry): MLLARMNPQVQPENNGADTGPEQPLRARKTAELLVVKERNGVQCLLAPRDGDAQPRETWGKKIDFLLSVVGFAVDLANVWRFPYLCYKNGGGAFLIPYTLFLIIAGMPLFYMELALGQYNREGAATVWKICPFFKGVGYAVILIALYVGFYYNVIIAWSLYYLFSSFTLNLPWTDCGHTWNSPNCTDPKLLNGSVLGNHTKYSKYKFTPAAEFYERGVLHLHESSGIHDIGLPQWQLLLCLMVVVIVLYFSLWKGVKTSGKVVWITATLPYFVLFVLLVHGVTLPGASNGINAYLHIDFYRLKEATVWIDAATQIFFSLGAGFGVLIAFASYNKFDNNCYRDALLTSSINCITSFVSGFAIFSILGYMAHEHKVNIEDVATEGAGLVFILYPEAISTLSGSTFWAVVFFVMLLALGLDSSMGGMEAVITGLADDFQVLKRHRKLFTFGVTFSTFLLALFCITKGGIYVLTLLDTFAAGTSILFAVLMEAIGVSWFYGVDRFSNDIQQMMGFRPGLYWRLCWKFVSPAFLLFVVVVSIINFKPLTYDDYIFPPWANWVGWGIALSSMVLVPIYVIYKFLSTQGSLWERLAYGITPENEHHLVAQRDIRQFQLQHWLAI
# RUN DESCRIPTION: DRUGMATRIX: Norepinephrine Transporter radioligand binding (ligand: [125I] RTI-55)
# Assay type: cell membranes, MDCK, Membrane
# TEST SETTINGS: Not Active = under 50% inhibition at 10 µM; read-out: IC50
The meaning of pIC50 here: minus log10 of the concentration in molar units.

// below: answered molecules
CN1CCCC(CN2c3ccccc3Sc3ccccc32)C1 (stereo not given): 5.73
CCOc1nc2cccc(C(=O)O)c2n1Cc1ccc(-c2ccccc2-c2nnn[nH]2)cc1: 5.51
CCN(CC)CCCC(C)Nc1c2ccc(Cl)cc2nc2ccc(OC)cc12 (stereo not given): 5.54
N=C(N)c1ccc(OCCCCCOc2ccc(C(=N)N)cc2)cc1: 5.65

For Cc1c(O)cccc1C(=O)N[C@@H](CSc1ccccc1)[C@H](O)CN1C[C@H]2CCCC[C@H]2C[C@H]1C(=O)NC(C)(C)C the molecule record lists pIC50 as 5.05
